Reported folding enthalpy values follow for various sequences
- assayNotes: folding enthalpy; higher = less favourable; fluorescence melt of hairpins on a sequencing array, two-state fit
- reportedConditions: sodium 0.088 M
endpointName: folding enthalpy (kcal/mol)

[
  {
    "residues": "GTTGCGGGAAACCGTGAC ((..(((....)))..))",
    "endpointName": "folding enthalpy",
    "numericValue": -20.2
  },
  {
    "residues": "GCGCGGCGAAAGCTACGC (((..((....))..)))",
    "endpointName": "folding enthalpy",
    "numericValue": -19.8
  },
  {
    "residues": "GAGTTTGGAAACAAATTC ((.((((....)))).))",
    "endpointName": "folding enthalpy",
    "numericValue": -28.7
  },
  {
    "residues": "GATCCGACGACGGATC ((((((....))))))",
    "endpointName": "folding enthalpy",
    "numericValue": -36.6
  },
  {
    "residues": "GAGTCACGAAAGTGGCTC (((.(((....))).)))",
    "endpointName": "folding enthalpy",
    "numericValue": -39.4
  },
  {
    "residues": "GGCTCCGAAAGGACGGCC ((((((....)))..)))",
    "endpointName": "folding enthalpy",
    "numericValue": -20.8
  }
]
